Recorded CL for the following molecules
# Method Notes: Liver Microsome stability (In Vitro Metabolism)
# Format: in vitro ADME
# Protocol Conditions: Mouse liver microsomes

Guide cases for CL, answers given:
CC1C=CC=CC=CC=CC=CC=CC=CC(OC2OC(C)C(O)C(N)C2O)CC2OC(O)(CC(O)CC(O)C(O)CCC(O)CC(O)CC(=O)OC(C)C(C)C1O)CC(O)C2C(=O)NCCO (centres unmarked) [Compound AA] = <9.6 µL/min/mg
COC(=O)C(Cc1c[nH]cn1)NC(=O)C1C(O)CC2(O)CC(O)CC(O)C(O)CCC(O)CC(O)CC(=O)OC(C)C(C)C(O)C(C)C=CC=CC=CC=CC=CC=CC=CC(OC3OC(C)C(O)C(N)C3O)CC1O2 (centres unmarked) = <9.6 µL/min/mg
CNC(=O)C1C(O)CC2(O)CC(O)CC(O)C(O)CCC(O)CC(O)CC(=O)OC(C)C(C)C(O)C(C)C=CC=CC=CC=CC=CC=CC=CC(OC3OC(C)C(O)C(N)C3O)CC1O2 (centres unmarked) = <9.6 µL/min/mg
CC1C=CC=CC=CC=CC=CC=CC=CC(OC2OC(C)C(O)C(N)C2O)CC2OC(O)(CC(O)CC(O)C(O)CCC(O)CC(O)CC(=O)OC(C)C(C)C1O)CC(O)C2C(=O)NCCO (centres unmarked) [Compound BA] = <9.6 µL/min/mg

Here is another molecule to look at.
Find the recorded CL belonging to CC1C=CC=CC=CC=CC=CC=CC=CC(OC2OC(C)C(O)C(N)C2O)CC2OC(O)(CC(O)CC(O)C(O)CCC(O)CC(O)CC(=O)OC(C)C(C)C1O)CC(O)C2C(=O)NCCN (centres unmarked) and report it.
<9.6 µL/min/mg
